- Tested on: HUVEC
- test-method-notes: Immunomodulatory activity in HUVEC assessed as inhibition of IFNgamma-induced HLA-E expression at 10 uM pretreated for 1 hr followed by IFNgamma stimulation and measured after 48 hrs by immunostaining based flow cytometry relative to control
- Format: functional
- condition-summary: Homo sapiens
The source made the active and inactive calls. No cut-off for these calls is given here.
measure-name: Activity

>>> df
                                   molecule  measure_name    result
0  COc1cc(-c2ccccc2)cc2c1C[C@H](O)C(C)(C)O2      Activity  inactive
1  COc1cc(C2Oc3c(OC)cc4c(=O)c5ccccc5oc4c3OC2CO)ccc1O (centres undefined)      Activity  inactive
2  COc1cc(-c2ccccc2)cc2c1C[C@@H](C(C)(C)O)O2      Activity  inactive
3  COc1cc2oc3cc(O)cc(O)c3c(=O)c2c2c1OC(C)(C)C=C2      Activity  inactive
